Here the recorded Combination index is given for each entry.
TEST_SYSTEM: HIV-RT (Human immunodeficiency virus type 1 group M subtype B, UniProt P04585)
Construct: 1 unit/mL of HIV-RT (Worthington Biochemical Corp., Freehold, N.J.); purchased Worthington Biochemical Corp., Freehold, N.J
TEST_SUMMARY: Checkerboard combination of lavendamycin analogs with AZT-triphosphate in HIV-RT enzyme assay (Chou and Talalay)
Assay type: biochemical
ASSAY_CONTEXT: analogue 0.25 μM + AZT 0.02 μM, Trial 2
From the text: […] The assay procedure described below is adapted from Okada et al. (Okada, H.; Mukai, H.; Inouye, Y; Nakamura, S. “Biological Properties of Streptonigrin Derivatives II. Inhibition of Reverse Transcriptase Activity,” J. Antibiot., 1986, 39, 306-308). […] For each assay, the reaction mixture containing 8× buffer, double distilled H2O, ^3HTTP, template-primer and HIV-RT was pre-mixed in a 15-mL sterile tube in quantities required for the particular experiment. […]
The answer should be a number; do not append a unit.

CC(=O)NC1=CC(=O)c2ccc(-c3nc(C(N)=O)cc4c3[nH]c3ccccc34)nc2C1=O [Compound 16, 7-N-Acetyldemethyllavendamycin Amide] : 0.75
CCCCOC(=O)c1cc2c([nH]c3ccccc32)c(-c2ccc3c(n2)C(=O)C(NC(=O)CCC)=CC3=O)n1 [Compound 12] : 0.50
CC(=O)NC1=CC(=O)c2ccc(-c3nc(C(=O)O)cc4c3[nH]c3ccccc34)nc2C1=O [Compound 18, 7-N-Acetyldemethyllavendamycin] : 0.60
COC(=O)c1nc(-c2ccc3c(n2)C(=O)C(NC(C)=O)=CC3=O)c2[nH]c3ccccc3c2c1C [Compound 11, 7-acetyllavendamycin methyl ester] : 0.68

We now examine a further compound.
get_value(item= CCCCCCCCOC(=O)c1cc2c([nH]c3ccccc32)c(-c2ccc3c(n2)C(=O)C(N)=CC3=O)n1 [Compound 20, Demethyllavendamycin n-Octyl Ester] , readout=Combination index) returns 1.00

====

TEST_SUMMARY: Cytotoxicity assay (MTT), normal murine spleen cells stimulated with concanavalin A
Format: cell-based
ASSAY_CONTEXT: normal mouse spleen stimulated with concanavalin A inhibited by 50%; read-out: Mean CC50 (Normal Mouse Spleen) ± SEM (no. of expts)
MEASUREMENT_LABEL: CC50 at 48 h (µM)
Your answer should be a plain number; it is taken to be in µM.

CCCCCCCCOC(=O)c1cc2c([nH]c3ccccc32)c(-c2ccc3c(n2)C(=O)C(N)=CC3=O)n1 : 48

We now examine a further molecule.
get_value(item= CCCCOC(=O)c1cc2c([nH]c3ccccc32)c(-c2ccc3c(n2)C(=O)C(NC(=O)CCC)=CC3=O)n1 , readout=CC50 at 48 h) returns 81

====

TEST_SYSTEM: HIV reverse transcriptase (HIV-RT) (Human immunodeficiency virus type 1 group M subtype B)
Construct: 1 unit/mL of HIV-RT (Worthington Biochemical Corp., Freehold, N.J.); purchased Worthington Biochemical Corp., Freehold, N.J
TEST_SUMMARY: HIV-RT assay (3H-TTP incorporation, modified assay of Okada et al.)
Format: biochemical
ASSAY_CONTEXT: 50% inhibition of HIV RT activity toward 1 unit of enzyme; read-out: Mean IC50 ± SEM (no. of expts)
Here the recorded pIC50 is given for each entry.
// field semantics: pIC50 = negative decimal log of concentration (mol/L)

CCCCCCCCOC(=O)c1cc2c([nH]c3ccccc32)c(-c2ccc3c(n2)C(=O)C(N)=CC3=O)n1 : 5.15

We now examine a further compound.
# CCCCOC(=O)c1cc2c([nH]c3ccccc32)c(-c2ccc3c(n2)C(=O)C(NC(=O)CCC)=CC3=O)n1 with HIV reverse transcriptase (HIV-RT) (Human immunodeficiency virus type 1 group M subtype B): pIC50 is 5.24

====

TEST_SYSTEM: HIV-RT (Human immunodeficiency virus type 1 group M subtype B, UniProt P04585)
Construct: 1 unit/mL of HIV-RT (Worthington Biochemical Corp., Freehold, N.J.); purchased Worthington Biochemical Corp., Freehold, N.J
TEST_SUMMARY: Checkerboard combination of lavendamycin analogs with AZT-triphosphate in HIV-RT enzyme assay (Chou and Talalay)
Type: biochemical
ASSAY_CONTEXT: analogue 0.75 μM + AZT 0.02 μM, Trial 1
The label Met is reserved for Combination index strictly under 1; Not met covers values equal to or above it.

CC(=O)NC1=CC(=O)c2ccc(-c3nc(C(N)=O)cc4c3[nH]c3ccccc34)nc2C1=O [Compound 16, 7-N-Acetyldemethyllavendamycin Amide] : Not met
CCCCCCCCOC(=O)c1cc2c([nH]c3ccccc32)c(-c2ccc3c(n2)C(=O)C(N)=CC3=O)n1 : Met
CC(=O)NC1=CC(=O)c2ccc(-c3nc(C(=O)O)cc4c3[nH]c3ccccc34)nc2C1=O : Met

We now examine a further compound.
Req: Problem: For the compound COC(=O)c1nc(-c2ccc3c(n2)C(=O)C(NC(C)=O)=CC3=O)c2[nH]c3ccccc3c2c1C , is Combination index under 1?
Resp: Met

====

Here the recorded Combination index is given for each entry.
TEST_SYSTEM: HIV-RT (Human immunodeficiency virus type 1 group M subtype B)
Construct: 1 unit/mL of HIV-RT (Worthington Biochemical Corp., Freehold, N.J.); purchased Worthington Biochemical Corp., Freehold, N.J
TEST_SUMMARY: Checkerboard combination of lavendamycin analogs with AZT-triphosphate in HIV-RT enzyme assay (Chou and Talalay)
Type: biochemical
ASSAY_CONTEXT: analogue 1.5 μM + AZT 0.007 μM, Trial 2
The answer should be a number; do not append a unit.

COC(=O)c1nc(-c2ccc3c(n2)C(=O)C(NC(C)=O)=CC3=O)c2[nH]c3ccccc3c2c1C [Compound 11, 7-acetyllavendamycin methyl ester] : 1.23

get_value(item= CCCCOC(=O)c1cc2c([nH]c3ccccc32)c(-c2ccc3c(n2)C(=O)C(NC(=O)CCC)=CC3=O)n1 [Compound 12] , readout=Combination index) returns 1.20

get_value(item= CCCCCCCCOC(=O)c1cc2c([nH]c3ccccc32)c(-c2ccc3c(n2)C(=O)C(N)=CC3=O)n1 [Compound 20, Demethyllavendamycin n-Octyl Ester] , readout=Combination index) returns 0.83

get_value(item= CC(=O)NC1=CC(=O)c2ccc(-c3nc(C(N)=O)cc4c3[nH]c3ccccc34)nc2C1=O [Compound 16, 7-N-Acetyldemethyllavendamycin Amide] , readout=Combination index) returns 0.67

get_value(item= CC(=O)NC1=CC(=O)c2ccc(-c3nc(C(=O)O)cc4c3[nH]c3ccccc34)nc2C1=O [Compound 18, 7-N-Acetyldemethyllavendamycin] , readout=Combination index) returns 0.94

get_value(item= CC(=O)NC1=CC(=O)c2ccc(-c3nc(C(=O)OCCOP(=O)(O)O)cc4c3[nH]c3ccccc34)nc2C1=O [Compound 19] , readout=Combination index) returns 0.81

====

Here the recorded pIC50 is given for each entry.
TEST_SYSTEM: HIV reverse transcriptase (HIV-RT) (Human immunodeficiency virus type 1 group M subtype B)
Construct: 1 unit/mL of HIV-RT (Worthington Biochemical Corp., Freehold, N.J.); purchased Worthington Biochemical Corp., Freehold, N.J
TEST_SUMMARY: HIV-RT assay (3H-TTP incorporation, modified assay of Okada et al.)
Format: biochemical
ASSAY_CONTEXT: Mean IC50 ± SEM (no. of expts), 50% inhibition of HIV RT activity toward 1 unit of enzyme
// field semantics: pIC50 = negative decimal log of concentration (mol/L)

The following molecules have reported results that may help.
NC(=O)c1cc2c([nH]c3ccccc32)c(-c2ccc3c(n2)C(=O)C(N)=CC3=O)n1 [Compound 21, Demethyllavendamycin Amide] : 4.69
CC(=O)NC1=CC(=O)c2ccc(-c3nc(C(N)=O)cc4c3[nH]c3ccccc34)nc2C1=O [Compound 16, 7-N-Acetyldemethyllavendamycin Amide] : 4.90
CC(=O)NC1=CC(=O)c2ccc(-c3nc(C(=O)O)cc4c3[nH]c3ccccc34)nc2C1=O [Compound 18, 7-N-Acetyldemethyllavendamycin] : 4.88

We now examine a further molecule.
get_value(item= COC(=O)c1nc(-c2ccc3c(n2)C(=O)C(NC(C)=O)=CC3=O)c2[nH]c3ccccc3c2c1C [Compound 11, 7-acetyllavendamycin methyl ester] , readout=pIC50) returns 4.82

====

TEST_SYSTEM: HIV-RT (Human immunodeficiency virus type 1 group M subtype B, UniProt P04585)
Construct: 1 unit/mL of HIV-RT (Worthington Biochemical Corp., Freehold, N.J.); purchased Worthington Biochemical Corp., Freehold, N.J
TEST_SUMMARY: Checkerboard combination of lavendamycin analogs with AZT-triphosphate in HIV-RT enzyme assay (Chou and Talalay)
Format: biochemical
ASSAY_CONTEXT: analogue 0.25 μM + AZT 0.007 μM, Trial 1
MEASUREMENT_LABEL: Combination index
The answer should be a number; do not append a unit.

The following compounds have reported results that may help.
CC(=O)NC1=CC(=O)c2ccc(-c3nc(C(=O)O)cc4c3[nH]c3ccccc34)nc2C1=O [Compound 18, 7-N-Acetyldemethyllavendamycin] : 0.39
CCCCCCCCOC(=O)c1cc2c([nH]c3ccccc32)c(-c2ccc3c(n2)C(=O)C(N)=CC3=O)n1 [Compound 20, Demethyllavendamycin n-Octyl Ester] : 0.65
CC(=O)NC1=CC(=O)c2ccc(-c3nc(C(N)=O)cc4c3[nH]c3ccccc34)nc2C1=O [Compound 16, 7-N-Acetyldemethyllavendamycin Amide] : 0.82
CCCCOC(=O)c1cc2c([nH]c3ccccc32)c(-c2ccc3c(n2)C(=O)C(NC(=O)CCC)=CC3=O)n1 [Compound 12] : 0.82

We now examine a further compound.
# COC(=O)c1nc(-c2ccc3c(n2)C(=O)C(NC(C)=O)=CC3=O)c2[nH]c3ccccc3c2c1C [Compound 11, 7-acetyllavendamycin methyl ester] with HIV-RT (Human immunodeficiency virus type 1 group M subtype B, UniProt P04585): Combination index is 0.57

// provenance: patent US20060079497A1
